Every entry's value here was drawn from PubChem BioAssay.

What fold change was measured for each of the following?
experiment: viability loss with induced miR-34 in A549 – imaging, A549 dox-inducible miR-34, nuclei and caspase counts, primary screen (AID 1347080); conditions: A549 miR-34 inducible, Hoechst nuclei count, 48 h; hits give low values; cell number ratio, induced over uninduced; note: test concentration not given here
Numbers only.

Recorded fold change, per entry:
>  <compound>
CCCCCCCCCCCCCCCNC(=O)C1CCCCC1

>  <fold change>
1.13

$$$$
>  <compound>
CC(C)(C)n1nc(-c2cccc3ccccc23)c2c(N)ncnc21

>  <fold change>
0.947

$$$$
>  <compound>
N[C@@H](CCC(=O)N[C@@H](CSN=O)C(=O)NCC(=O)O)C(=O)O

>  <fold change>
0.991

$$$$
>  <compound>
CCN(C(=O)c1c(O)c2c(Cl)cccc2n(C)c1=O)c1ccccc1

>  <fold change>
0.884

$$$$
>  <compound>
CCC(C)(C)C(=O)C(=O)N1CCCC[C@H]1C(=O)O[C@H](CCc1ccc(OC)c(OC)c1)c1cccc(N)c1

>  <fold change>
0.702

$$$$

Can you give me fold change for all of these, one by one?
1. NC(=O)CCCCn1ccc(NC(N)=NCC(F)(F)F)n1
2. CCCCC[C@H](O)/C=C/[C@@H]1[C@@H](C/C=C\CCCC(=O)N(CC)CC)[C@@H](O)C[C@H]1O

Result:
[0.945, 0.98]

Batch request: fold change for each of the following compounds.
1. CC(N)=NCCCC[C@H](N)C(=O)O
2. Cc1cn(-c2cc(NC(=O)c3ccc(C)c(Nc4nccc(-c5cccnc5)n4)c3)cc(C(F)(F)F)c2)cn1

Result:
0.958
0.874

// batch mode: one fold change value per listed entry
1. O=C(Cc1ccccc1)Nc1nc2ccc(Cl)cc2c2nc(-c3ccco3)nn12
2. CCCCC[C@H](O)/C=C/[C@H]1C2CC(CO2)[C@@H]1C/C=C\CCCC(=O)O (some centres not stated)
3. O=c1cc(N2CCOCC2)nc2c3ccccc3ccn12
4. CCCCC[C@H](O)/C=C/[C@H]1[C@H](O)CC(=O)[C@@H]1CCCCCCC(=O)NCCO
5. C[C@H]([C@@H](O)c1ccc(O)cc1)N1CCC(Cc2ccccc2)CC1 (racemic)
6. CCCCCCCC/C=C\CCCCCCCC(=O)NCC(=O)O

Result:
1: 1; 2: 0.956; 3: 0.935; 4: 0.954; 5: 0.927; 6: 1.05

Your task in this section: give fold change for each listed record.
1. OC[C@H]1O[C@@H](n2cnc3c(N[C@H]4CCC[C@@H]4O)ncnc32)[C@H](O)[C@@H]1O
2. CC/C=C\C/C=C\C/C=C\CCCCCCCC(=O)OCC
3. Nc1nc(OCc2ccccc2)c2[nH]cnc2n1
4. COC(=O)c1ccccc1NC(=O)c1ccc(F)cc1
5. CNCc1ccc(-c2[nH]c3cc(F)cc4c3c2CCNC4=O)cc1
6. CCCCCCCC(=O)CC[C@@H]1[C@@H](C/C=C\CCCC(=O)O)[C@@H](O)C[C@H]1O
7. CCCCCCCCCSCCCCCCCC(=O)O
8. CCN(CC)c1ccc(/C=N/NC(=O)c2ccc(O)cc2)cc1

Result:
1: 0.959; 2: 0.898; 3: 0.895; 4: 0.965; 5: 0.956; 6: 0.944; 7: 0.943; 8: 0.945
